All figures here come from PubChem BioAssay.

Molecular target: Dual specificity protein phosphatase 6 (Homo sapiens) (UniProt Q16828)
Sequence (Q16828 whole entry, looked up): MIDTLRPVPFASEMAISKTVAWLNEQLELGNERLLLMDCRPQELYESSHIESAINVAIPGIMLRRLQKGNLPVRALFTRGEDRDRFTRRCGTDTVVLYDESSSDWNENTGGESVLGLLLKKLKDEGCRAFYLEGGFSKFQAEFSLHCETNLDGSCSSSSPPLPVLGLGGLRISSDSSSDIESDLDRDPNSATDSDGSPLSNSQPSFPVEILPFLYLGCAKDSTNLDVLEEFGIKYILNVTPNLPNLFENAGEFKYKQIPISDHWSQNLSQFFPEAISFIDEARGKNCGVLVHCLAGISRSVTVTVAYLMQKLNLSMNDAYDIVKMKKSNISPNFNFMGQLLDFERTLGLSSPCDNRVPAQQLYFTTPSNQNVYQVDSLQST
Assay: DUSP6 inhibitors restoring Erk phosphorylation by chemical complementation, primary imaging in DUSP6-transfected HeLa (AID 609);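 further: phospho-Erk level distribution per well compared with pooled transfected vehicle control wells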
Conditions: HeLa MKP-3 transfected, phospho-Erk imaging KS statistic; at 10 µM; active compounds read high; cells stimulated with TPA for 15 min
The source made the active and inactive calls.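 How the source made its calls: active means compounds giving at least 50% inhibition in the cell-based MKP-3 phosphatase rescue imaging test; inactive means the rest.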
metric name: inhibition

Guide cases for inhibition, answers given:
COc1cc(/C=C/C(=O)CC(=O)/C=C/c2ccc(O)c(OC)c2)ccc1O = -8.38% (inactive)
COC(=O)C1=C(C)OC(N)=C(C#N)C1c1ccc(OC)c(OC)c1OC (configuration not stated) = 26.5% (inactive)
COC(=O)c1cc(=O)n2c(-c3ccc(OC)cc3)csc2n1 = 1.98% (inactive)
Cc1cc(C)n(C(=O)CN2C(=O)CCC2=O)n1 = -5.62% (inactive)
CCN1CCN(c2cc3c(cc2F)c(=O)c(C(=O)O)cn3C2CC2)CC1 = -5.24% (inactive)

Please look at the following compound next.
Ask: Fill in: inhibition on Dual specificity protein phosphatase 6 (Homo sapiens) (UniProt Q16828), entry Fc1ccc(C2C3=C(Nc4ncnn42)c2ccccc2OC3c2ccncc2)cc1 (configuration not stated)
Reply: 21.4% (inactive)
